# Assay text: photoluminescence quantum yield (fraction); solvent given as SMILES
# Conditions used: in CC(C)=O
Please use Criterion met for photoluminescence quantum yield under 0.1 and Criterion not met for everything else, ties included.

Sample answers from the record:
Smiles data | Class assignment
COc1cc(N(c2ccccc2)c2ccc(C=C(C#N)C#N)c(OC)c2)ccc1C=C(C#N)C#N | Criterion met
O=c1oc2ccccc2cc1-c1nc2ccccc2o1 | Criterion not met
CC1=CC(C)=[N+]2C1=C(c1ccc(N3CCOCC3)cc1)c1c(C)cc(C)n1[B-]2(F)F | Criterion met

Please indicate whether the reported photoluminescence quantum yield of `CCN(CC)c1ccc2cc(/C=C/c3cccc[n+]3CCCS(=O)(=O)[O-])c(=O)oc2c1` is strictly below 0.1.
Criterion not met
